# Test system: Ribonucleoside-diphosphate reductase large subunit (Herpes simplex virus (type 1 / strain 17), UniProt P08543)
# Sequence (P08543 whole entry): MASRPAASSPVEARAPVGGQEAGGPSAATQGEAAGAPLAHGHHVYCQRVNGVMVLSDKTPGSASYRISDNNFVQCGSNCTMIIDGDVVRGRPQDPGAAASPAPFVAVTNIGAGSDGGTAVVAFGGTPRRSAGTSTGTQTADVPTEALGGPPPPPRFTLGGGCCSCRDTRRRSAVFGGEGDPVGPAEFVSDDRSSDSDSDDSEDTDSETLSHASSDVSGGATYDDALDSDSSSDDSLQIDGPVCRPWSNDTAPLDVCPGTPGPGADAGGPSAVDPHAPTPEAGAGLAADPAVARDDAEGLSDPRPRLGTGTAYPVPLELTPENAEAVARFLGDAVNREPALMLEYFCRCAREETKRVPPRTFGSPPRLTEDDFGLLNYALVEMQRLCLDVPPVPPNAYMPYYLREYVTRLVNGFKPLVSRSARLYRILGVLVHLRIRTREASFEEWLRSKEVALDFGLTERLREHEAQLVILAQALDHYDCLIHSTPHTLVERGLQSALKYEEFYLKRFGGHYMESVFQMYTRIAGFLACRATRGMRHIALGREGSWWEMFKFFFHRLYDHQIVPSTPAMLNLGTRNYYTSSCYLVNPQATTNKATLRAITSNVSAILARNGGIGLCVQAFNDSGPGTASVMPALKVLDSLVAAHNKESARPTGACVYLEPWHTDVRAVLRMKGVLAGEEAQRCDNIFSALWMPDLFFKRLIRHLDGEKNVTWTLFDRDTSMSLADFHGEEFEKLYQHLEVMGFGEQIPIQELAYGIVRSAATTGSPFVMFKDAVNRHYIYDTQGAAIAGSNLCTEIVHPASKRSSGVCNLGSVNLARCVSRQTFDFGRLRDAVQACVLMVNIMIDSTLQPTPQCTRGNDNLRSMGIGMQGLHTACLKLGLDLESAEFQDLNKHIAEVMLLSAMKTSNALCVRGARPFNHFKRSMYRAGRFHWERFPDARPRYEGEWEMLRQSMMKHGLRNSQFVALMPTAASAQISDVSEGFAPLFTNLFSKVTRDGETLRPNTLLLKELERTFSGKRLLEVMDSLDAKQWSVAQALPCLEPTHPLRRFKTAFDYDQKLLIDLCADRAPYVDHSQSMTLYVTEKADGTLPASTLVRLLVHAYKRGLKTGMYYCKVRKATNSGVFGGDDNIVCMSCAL
# Test name: Inhibitory activity was determined against HSV-1 Ribonucleoside diphosphate reductase
# Set-up: species or system Human alphaherpesvirus 1
Peptide text beside a SMILES is read from it. * marks the point of attachment. Desaminotyrosyl = O=C(CCc1ccc(O)cc1)*
Reported property: IC50 (µM)

Compound	Value units	Measured result
CC(C)C[C@H](NC(=O)[C@H](CC(=O)O)NC(=O)[C@H](CC(N)=O)NC(=O)[C@@H](NC(=O)[C@@H](NC(=O)[C@H](C)NC(=O)CNC(=O)[C@H](C)NC(=O)[C@H](Cc1ccc(O)cc1)NC(=O)[C@H](CO)NC(=O)[C@@H](NC(=O)[C@H](CO)NC(=O)[C@H](CCCN=C(N)N)NC(=O)[C@H](CS)NC(=O)[C@H](CCC(=O)O)NC(=O)[C@H](Cc1ccccc1)NC(=O)[C@H](Cc1ccccc1)NC(=O)[C@H](CC(=O)O)NC(=O)[C@@H](N)[C@@H](C)O)[C@@H](C)O)C(C)C)C(C)C)C(=O)O	µM	15
CSCC[C@H](NC(=O)[C@@H](NC(=O)[C@@H](N)Cc1ccc(O)cc1)[C@@H](C)O)C(=O)N[C@@H](CC(C)C)C(=O)N[C@H](C(=O)N[C@H](C(=O)N[C@@H](CC(=O)O)C(=O)N[C@@H](CC(=O)O)C(=O)N[C@@H](CC(C)C)C(=O)O)C(C)C)C(C)C	µM	110
CC(C)C[C@H](NC(=O)[C@H](CC(=O)O)NC(=O)[C@H](CC(N)=O)NC(=O)[C@@H](NC(=O)[C@@H](NC(=O)[C@H](C)NC(=O)CNC(=O)[C@H](C)NC(=O)CCc1ccc(O)cc1)C(C)C)C(C)C)C(=O)O (Desaminotyrosyl-AGAVVNDL-OH)	µM	33
